# Assayed system: T1, hVEGF-A (8-109) (human, UniProt P15692 214-315)
# T1 sequence (looked up): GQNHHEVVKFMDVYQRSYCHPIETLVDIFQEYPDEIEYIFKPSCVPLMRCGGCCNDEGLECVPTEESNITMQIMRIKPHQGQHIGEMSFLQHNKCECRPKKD
# Protocol: spot phage ELISA
In plain terms, low S/N vs BSA, meaning strictly below 30, gives true (1), and everything else gives false (0).

Below, 10 binders whose answers are already recorded.
Binder: GCNIMLPFWGCGYDLQCLAGCVCQYYQSCG (designed binder) [VEGF_CKP9.54.87]
Classification: true (1)
//
Binder: GCPRILMRCKQDSDCLAGCVCGPNGFCG (also called wild type EETI-II) [EETI-II]
Classification: true (1)
//
Binder: GCNIMLPFWGCGWSMDCLAGCVCQYYQSCG (designed binder) [VEGF_CKP9.54.76]
Classification: false (0)
//
Binder: GCHMMYDYCKQDSDCLAGCVCEMYDACG (designed binder) [VEGF_CKP3]
Classification: false (0)
//
Binder: GCVTPWKPHWINCKQDSDCLAGCVCGPNGFCG (designed binder) [VEGF_CKP13]
Classification: false (0)
//
Binder: GCNIMLPFWGCGPDLQCLAGCVCQYYQSCG (designed binder) [VEGF_CKP9.54.59]
Classification: false (0)
//
Binder: GCDVMQPYWGCEMDFDCLAGCVCHWYNSCG (designed binder, also called L2.9.63.44) [VEGF_CKP9.63.44]
Classification: true (1)
//
Binder: GCQDPTFNWALYCKQDSDCLAGCVCQMYQSCG (designed binder) [VEGF_CKP7]
Classification: false (0)
//
Binder: GCRTPWEPHDITCKQDSDCLAGCVCGPNGFCG (designed binder) [VEGF_CKP11]
Classification: false (0)
//
Binder: GCDVMQPYWGCGENFLCLAGCVCHWYNSCG (designed binder, also called L2.9.63.1) [VEGF_CKP9.63.1]
Classification: true (1)

QUERY: Take the binder GCNIMLPFWGCGTNFLCLAGCVCQYYQSCG (designed binder) [VEGF_CKP9.54.31] and say whether its S/N vs BSA is less than 30.
RESULT: false (0)

QUERY: Problem: For the binder GCGETVFEQFLWCKQDSDCLAGCVCGPNGFCG (designed binder) [VEGF_CKP2] , is S/N vs BSA under 30?
RESULT: false (0)

QUERY: Here's an entry: GCDVMQPYWGCGRDMDCLAGCVCHWYNSCG (designed binder, also called L2.9.63.27) [VEGF_CKP9.63.27] . Is its S/N vs BSA below 30?
RESULT: true (1)

Sourced from patent US20200325187A1
